Measured values drawn from patent US20040086901A1 for this set.

# key: entry, value: logarithmic value of ratio of IC40 values
Tested on: NIH3T3 cells, TPA (PKC downreg)
Experiment: MTT cell viability, TPA (PKC downreg) cells vs parental line
Format: cell-based, mouse
Conditions: 3 to 4 days
Recorded Metric: logarithmic value of ratio of IC40 values

O=c1c(-c2ccc(O)cc2)coc2cc(O)cc(O)c12: −0.09
C[C@@H]1O[C@@H](O[C@H]2C[C@@H](O)[C@]3(CO)[C@H]4[C@H](O)C[C@]5(C)[C@@H](C6=CC(=O)OC6)CC[C@]5(O)[C@@H]4CC[C@]3(O)C2)[C@H](O)[C@H](O)[C@H]1O: −0.08
C=C[C@]1(C)CC[C@@H](C(=C)C)C[C@H]1C(=C)C: 0.00
C/C=C(/C)C(=O)O[C@H]1C(C)=C2[C@H]([C@@H]1OC(=O)CCCCCCC)[C@@](C)(OC(C)=O)C[C@H](OC(=O)CCC)[C@@]1(O)[C@H]2OC(=O)[C@@]1(C)O: −0.23
COC(=O)[C@@]1(O)C[C@H]2O[C@]1(C)n1c3ccccc3c3c4c(c5c6ccccc6n2c5c31)C(=O)NC4 [K252a]: −0.13
C=C1[C@@H](O)[C@@H]2O[C@]3(CC[C@H](/C=C/[C@@H](C)[C@@H]4CC(C)=C[C@@]5(O[C@H](C[C@@](C)(O)C(=O)O)CC[C@H]5O)O4)O3)CC[C@H]2O[C@@H]1[C@@H](O)C[C@H](C)[C@H]1O[C@@]2(CCCCO2)CC[C@H]1C: 0.12
C=CC1=C(C)c2cc3[n-]c(cc4nc(cc5[n-]c(cc1n2)c(C)c5CCC(=O)O)C(CCC(=O)O)=C4C)c(C)c3C=C.[Cl-].[Cl-].[Sn+4]: −0.20
C[C@@H]1C[C@@H]([C@H](O)CC2CC(=O)NC(=O)C2)C(=O)[C@@H](C)C1 [CHX, cycloheximide]: 0.00

###

System: NIH3T3 cells overexpressing PKCalpha-KN
Test: MTT cell viability, PKCalpha-KN overexpressing cells vs parental line
Assay type: cell-based, mouse
Settings: PKCalpha-KN (first of two lines) high-expressing cells / parental cell line, 3 to 4 days
Recorded Metric: logarithmic value of ratio of IC40 values

COC[C@H]1OC(=O)c2coc3c2[C@@]1(C)C1=C(C3=O)[C@@H]2CCC(=O)[C@@]2(C)C[C@H]1OC(C)=O [Wortmannin, wortmannin]: 0.41
C=CC1=C(C)c2cc3[n-]c(cc4nc(cc5[n-]c(cc1n2)c(C)c5CCC(=O)O)C(CCC(=O)O)=C4C)c(C)c3C=C.[Cl-].[Cl-].[Sn+4] [SnPP]: −0.14
COC(=O)[C@@]1(O)C[C@H]2O[C@]1(C)n1c3ccccc3c3c4c(c5c6ccccc6n2c5c31)C(=O)NC4 [K252a]: 0.16
O=[As]O [NaAsO2, sodium arsenite]: 0.16
C=C[C@]1(C)CC[C@@H](C(=C)C)C[C@H]1C(=C)C [b-elemene, β-elemene]: 0.07
C/C=C(/C)C(=O)O[C@H]1C(C)=C2[C@H]([C@@H]1OC(=O)CCCCCCC)[C@@](C)(OC(C)=O)C[C@H](OC(=O)CCC)[C@@]1(O)[C@H]2OC(=O)[C@@]1(C)O [Thapsigargin, thapsigargin]: 0.10
CC(C)(C)C(=O)Oc1ccc(S(=O)(=O)Nc2ccccc2C(=O)NCC(=O)O)cc1 [compound 5046]: 0.10
Nc1nc2nc[nH]c2c(=S)[nH]1 [6-TG, 6-thioguanine]: 0.26

###

logarithmic value of ratio of IC40 values values for the molecules below.
Test system: NIH3T3 cells overexpressing erbB2
Assay: MTT cell viability, erbB2 overexpressing cells vs parental line
Type: cell-based, mouse
Conditions: erbB2 high-expressing cells / parental cell line, 3 to 4 days
Non-standard residues stand in square brackets, D forms with d. Residues, ends and D or L forms follow the SMILES beside them. Nle = CCCC[C@H](N)C(=O)O
Recorded Metric: logarithmic value of ratio of IC40 values

C[C@@H]1O[C@@H](O[C@H]2C[C@@H](O)[C@]3(CO)[C@H]4[C@H](O)C[C@]5(C)[C@@H](C6=CC(=O)OC6)CC[C@]5(O)[C@@H]4CC[C@]3(O)C2)[C@H](O)[C@H](O)[C@H]1O: 0.18
CN[C@@H]1C[C@H]2O[C@@](C)([C@@H]1OC)n1c3ccccc3c3c4c(c5c6ccccc6n2c5c31)C(=O)NC4: 0.04
COC(=O)[C@@]1(O)C[C@H]2O[C@]1(C)n1c3ccccc3c3c4c(c5c6ccccc6n2c5c31)C(=O)NC4 [K252a]: 0.15
CCCC[C@@H](C=O)NC(=O)[C@H](CC(C)C)NC(=O)[C@H](CC(C)C)NC(C)=O [ALLN] (Ac-Leu-Leu-[Nle]-aldehyde): −0.05
CN(C)CCCn1cc(C2=C(c3c[nH]c4ccccc34)C(=O)NC2=O)c2ccccc21 [GF109203X]: −0.40
C=C[C@]1(C)CC[C@@H](C(=C)C)C[C@H]1C(=C)C: −0.46
CC(C)(C)C(=O)Oc1ccc(S(=O)(=O)Nc2ccccc2C(=O)NCC(=O)O)cc1: 0.80
O=[As]O [NaAsO2, sodium arsenite]: −0.15
CNc1ccc2oc(C[C@H]3O[C@@]4(CC[C@H]3C)O[C@H]([C@H](C)C(=O)c3ccc[nH]3)[C@H](C)C[C@H]4C)nc2c1C(=O)O: −0.07
CCCC[C@@H](C)/C=C(C)/C=C(\C)C(=O)NC1=C[C@@](O)(/C=C/C=C/C=C/C(=O)NC2=C(O)CCC2=O)[C@@H]2O[C@@H]2C1=O: −0.05
C=CC1=C(C)c2cc3[n-]c(cc4nc(cc5[n-]c(cc1n2)c(C)c5CCC(=O)O)C(CCC(=O)O)=C4C)c(C)c3C=C.[Cl-].[Cl-].[Sn+4]: −0.25
C=C[C@@]1(C)CC(=O)[C@]2(O)[C@@]3(C)[C@@H](O)CCC(C)(C)[C@@H]3[C@H](O)[C@H](OC(C)=O)[C@@]2(C)O1: 0.28
COC[C@H]1OC(=O)c2coc3c2[C@@]1(C)C1=C(C3=O)[C@@H]2CCC(=O)[C@@]2(C)C[C@H]1OC(C)=O: 0.16

###

System: NIH3T3 cells overexpressing TK
Test: MTT cell viability, TK overexpressing cells vs parental line
Format: cell-based, mouse
Conditions: TK high-expressing cells / parental cell line, 3 to 4 days
Collected logarithmic value of ratio of IC40 values values appear next to each entry.
Recorded Metric: logarithmic value of ratio of IC40 values

C=C[C@]1(C)CC[C@@H](C(=C)C)C[C@H]1C(=C)C: −0.14
C=C1[C@@H](O)[C@@H]2O[C@]3(CC[C@H](/C=C/[C@@H](C)[C@@H]4CC(C)=C[C@@]5(O[C@H](C[C@@](C)(O)C(=O)O)CC[C@H]5O)O4)O3)CC[C@H]2O[C@@H]1[C@@H](O)C[C@H](C)[C@H]1O[C@@]2(CCCCO2)CC[C@H]1C: 0.00
C=CC1=C(C)c2cc3[n-]c(cc4nc(cc5[n-]c(cc1n2)c(C)c5CCC(=O)O)C(CCC(=O)O)=C4C)c(C)c3C=C.[Cl-].[Cl-].[Sn+4]: 0.00
CCCC[C@@H](C)/C=C(C)/C=C(\C)C(=O)NC1=C[C@@](O)(/C=C/C=C/C=C/C(=O)NC2=C(O)CCC2=O)[C@@H]2O[C@@H]2C1=O: 0.00
COc1ccc2c(c1)CC[C@@H]1[C@@H]2CC[C@]2(C)[C@@H](NCCCCCCN3C(=O)C=CC3=O)CC[C@@H]12: 0.00

###

Below, each entry is listed alongside its reported logarithmic value of ratio of IC40 values.
Tested on: NIH3T3 cells, TPA (PKC downreg)
Assay: MTT cell viability, TPA (PKC downreg) cells vs parental line
Format: cell-based, mouse
Settings: 3 to 4 days
Description: With regard to the function-known genes, the genes shown in the left column of Table 2 were used. […] Cell viabilities were measured according to the following procedures. […] 5) Cells (each high-expressing cells and the parental cell line) were detached from the medium using a trypsin solution, suspended in 10% CS-DMEM and transferred to a test tube and cell numbers (cell/ml) were counted. […] 10) Coloration of formazan which was a metabolite of the MTT dye was measured using a microplate reader. […]
Recorded Metric: logarithmic value of ratio of IC40 values

CN(C)CCCn1cc(C2=C(c3c[nH]c4ccccc34)C(=O)NC2=O)c2ccccc21 [GF109203X]: 0.09
CC(=O)OCOC(=O)CN(CC(=O)OCOC(C)=O)c1ccccc1OCCOc1ccccc1N(CC(=O)OCOC(C)=O)CC(=O)OCOC(C)=O [BAPTA-AM]: −0.03
CCCC[C@@H](C)/C=C(C)/C=C(\C)C(=O)NC1=C[C@@](O)(/C=C/C=C/C=C/C(=O)NC2=C(O)CCC2=O)[C@@H]2O[C@@H]2C1=O [Manumycin, manumycin]: 0.03
C=C[C@@]1(C)CC(=O)[C@]2(O)[C@@]3(C)[C@@H](O)CCC(C)(C)[C@@H]3[C@H](O)[C@H](OC(C)=O)[C@@]2(C)O1 [Forskolin, forskolin]: −0.17
CC(C)(C)C(=O)Oc1ccc(S(=O)(=O)Nc2ccccc2C(=O)NCC(=O)O)cc1 [compound 5046]: −0.10
CNc1ccc2oc(C[C@H]3O[C@@]4(CC[C@H]3C)O[C@H]([C@H](C)C(=O)c3ccc[nH]3)[C@H](C)C[C@H]4C)nc2c1C(=O)O [A23187]: −0.22
O=[As]O [NaAsO2, sodium arsenite]: −0.20
